Entry source: patent US20240101542A1

- system-under-test: ERAP2 (Homo sapiens (Human), UniProt Q6P179)
- Sequence (Q6P179 whole entry): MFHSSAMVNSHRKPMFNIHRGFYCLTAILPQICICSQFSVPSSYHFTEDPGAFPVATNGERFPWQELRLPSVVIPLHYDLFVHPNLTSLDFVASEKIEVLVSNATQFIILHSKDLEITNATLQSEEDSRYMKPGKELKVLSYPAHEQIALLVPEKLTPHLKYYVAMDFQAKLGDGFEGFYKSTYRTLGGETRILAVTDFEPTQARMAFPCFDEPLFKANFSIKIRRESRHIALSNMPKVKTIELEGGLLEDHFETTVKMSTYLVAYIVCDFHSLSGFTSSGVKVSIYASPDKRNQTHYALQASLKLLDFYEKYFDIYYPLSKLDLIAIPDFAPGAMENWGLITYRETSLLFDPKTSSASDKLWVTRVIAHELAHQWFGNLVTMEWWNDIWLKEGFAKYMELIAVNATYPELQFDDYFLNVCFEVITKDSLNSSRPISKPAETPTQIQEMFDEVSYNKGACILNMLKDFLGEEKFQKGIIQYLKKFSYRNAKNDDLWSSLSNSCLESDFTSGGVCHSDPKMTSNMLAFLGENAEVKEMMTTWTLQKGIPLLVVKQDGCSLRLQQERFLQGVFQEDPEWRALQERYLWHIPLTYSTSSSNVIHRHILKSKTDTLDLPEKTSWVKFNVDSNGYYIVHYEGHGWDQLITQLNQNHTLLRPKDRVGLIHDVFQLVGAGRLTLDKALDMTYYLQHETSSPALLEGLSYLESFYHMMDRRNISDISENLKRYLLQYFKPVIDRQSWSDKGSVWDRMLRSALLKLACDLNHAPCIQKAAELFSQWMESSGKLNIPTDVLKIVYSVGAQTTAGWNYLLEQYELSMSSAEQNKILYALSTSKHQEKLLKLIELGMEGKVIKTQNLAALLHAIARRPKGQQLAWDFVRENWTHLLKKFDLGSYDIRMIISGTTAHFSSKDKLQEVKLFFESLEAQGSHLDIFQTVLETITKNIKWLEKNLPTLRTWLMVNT
metric-name: IC50

Study these solved cases before continuing.
[
  {
    "molecule": "O=C(NO)[C@H](Cc1ccc(O)c(Cl)c1)n1cc(CNS(=O)(=O)c2ccc(-c3ccccn3)s2)nn1 [Compound 39]",
    "result": "< 500 nM"
  },
  {
    "molecule": "O=C(NO)[C@@H](Cc1ccc(O)cc1)n1nncc1CNS(=O)(=O)c1ccc(-c2ccccc2)s1 [Compound 35]",
    "result": "> 5000 nM"
  },
  {
    "molecule": "N=C(NO)c1ccc(C[C@@H](C(=O)NO)n2cc(CNS(=O)(=O)c3ccc(-c4ccccc4)s3)nn2)cc1 [Compound 55]",
    "result": "< 500 nM"
  }
]

Entry under review: COCCOc1ccc(C[C@@H](C(=O)NO)n2cc(CNS(=O)(=O)c3ccc(-c4ccccn4)s3)nn2)cc1 [Compound 51] . Reported IC50?
< 500 nM
